- System: skin collagen
- Measurement description: Glycosylation of diabetic rat skin collagen (Example V, Table IV)
- Assay type: in vivo, Sprague-Dawley rat
- Test conditions: 5 mg daily oral gavage, 21 days; NDC 0.027, untreated diabetic 0.377
- Experimental: All animals were weighed weekly. The subcutaneous muscle layer was removed leaving essentially the dermis. The dermis (skin connective tissue) samples were minced, then homogenized in phosphate buffered saline (4° C.). Following centrifugation (at 9000 rpm, 4° C., 30 min.) of the homogenates, the supernatants were discarded. […] Aliquots of the supernatants were analyzed for glycosylated collagen using a modification of the Isolab Glyco-PROBE™ GSP assay kit. […]
Quantity: mM Fructosamine/mg protein (Mean ± SE)

Req: Requested read-out: mM Fructosamine/mg protein (Mean ± SE). Entry: C[C@H]1c2cccc(O)c2C(O)=C2C(=O)[C@]3(O)C(O)=C(C(N)=O)C(=O)C[C@@H]3[C@@H](O)[C@@H]21
Resp: 0.118 ± 0.090 mM Fructosamine/mg protein

Req: Requested read-out: mM Fructosamine/mg protein (Mean ± SE). Entry: NC(=O)C1=C(O)C2(O)C(=O)C3=C(O)c4c(O)cccc4CC3CC2CC1=O (stereo not drawn)
Resp: 0.186 ± 0.048 mM Fructosamine/mg protein

Req: Requested read-out: mM Fructosamine/mg protein (Mean ± SE). Entry: CC1(O)c2cccc(O)c2C(O)=C2C(=O)C3C(O)=C(C(N)=O)C(=O)CC3CC21 (stereo not drawn)
Resp: 0.141 ± 0.086 mM Fructosamine/mg protein

All values here come from patent US5532227A.
